Parameter: Expression. Scope: all listed entries.
Tested on: H9
Test: Percentage of gag protein expression using H9 cells at 0 uM on 7th day
Type: functional, Homo sapiens
Please give a number only; it is taken to be in %.

Use these answered entries as a reference point.
>  <COMPOUND>
OCC1CC(F)C(n2cnc3c(O)ncnc32)O1 (centres undefined)

>  <UNIT TEXT>
%

>  <Expression>
76

$$$$
>  <COMPOUND>
Nc1ncnc2c1ncn2[C@@H]1O[C@H](CO)C[C@@H]1F

>  <UNIT TEXT>
%

>  <Expression>
79

$$$$

Task item: May I ask what Expression has been recorded for `O=c1[nH]cnc2c1ncn2[C@H]1CC[C@@H](CO)O1` ?
Reply: 76

Task item: I have this compound here, `Nc1ncnc2c1ncn2[C@H]1CC[C@@H](CO)O1` , and I need its recorded Expression.
Reply: 79
